# test_description: Dissociation constant, pKa of the compound
# Assay type: physicochemical
readout_kind: pKa

*Q* Any idea what pKa was measured for `Cc1ncc(COP(=O)(O)O)c(/C=N/OCCCN)c1O` ?
*A* ~5.9
